Test system: Male Sprague-Dawley Rats
Test: Serum clinical chemistries in male Sprague-Dawley rats
Assay type: in vivo
Details: rat serum, 0.3% in diet, 4 days, N = 5
Each record here notes measured AST (aspartate aminotransferase), percent of control.
Could you write the number and then its unit?

# molecule, reportedMeasurement
measured = [
    ("CC(C)=CCC[C@H](C)CCOc1ccc(O)c(C(C)(C)C)c1", "82%"),
    ("CC(C)=CCCC(C)CCOc1ccc(O)c(C(C)(C)C)c1 (centres unmarked)", "87%"),
    ("CC(C)=CCC[C@H](C)CCSc1ccc(O)c(C(C)(C)C)c1", "104%"),
    ("CC(C)=CCC[C@H](C)CCOc1cc(C(C)(C)C)c(O)c(C(C)(C)C)c1", "88%"),
]

For the next question, use this molecule.
AST (aspartate aminotransferase), percent of control of CC(C)CCCC(C)CCOc1ccc(O)c(C(C)(C)C)c1 (centres unmarked) on Male Sprague-Dawley Rats? 146%

Provenance of the data: patent US6114572A
